Reported values of IC50 for individual entries
Biological target: hepatitis C virus RNA dependent polymerase (NS5B) (Hepatitis C virus genotype 1b, UniProt P26663)
Construct: The C-terminal polyprotein cleavage product, NS5B, is the elongation subunit of the HCV replicase
Sequence (P26663 2420-3010): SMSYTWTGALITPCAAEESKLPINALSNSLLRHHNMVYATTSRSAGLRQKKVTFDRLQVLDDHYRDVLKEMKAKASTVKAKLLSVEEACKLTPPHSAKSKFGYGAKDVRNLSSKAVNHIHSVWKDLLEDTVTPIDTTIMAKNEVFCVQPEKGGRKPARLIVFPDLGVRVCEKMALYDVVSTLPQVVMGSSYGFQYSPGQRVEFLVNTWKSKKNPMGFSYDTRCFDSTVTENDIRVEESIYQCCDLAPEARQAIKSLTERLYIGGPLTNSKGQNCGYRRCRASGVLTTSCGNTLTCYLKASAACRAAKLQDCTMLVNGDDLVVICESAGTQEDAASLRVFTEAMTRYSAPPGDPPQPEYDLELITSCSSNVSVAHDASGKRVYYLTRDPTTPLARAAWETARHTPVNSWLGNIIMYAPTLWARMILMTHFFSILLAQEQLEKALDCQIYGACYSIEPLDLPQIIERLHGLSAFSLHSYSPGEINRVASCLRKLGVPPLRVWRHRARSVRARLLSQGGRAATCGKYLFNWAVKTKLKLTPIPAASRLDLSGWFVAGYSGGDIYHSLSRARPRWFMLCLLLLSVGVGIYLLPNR
Assay: biochemical

Use these answered entries as a reference point.
MOLECULE	IC50
COc1c(C(=O)NS(C)(=O)=O)ccc2c(C3CCCC3)c(-c3ccoc3)n(C)c12 [compound 201]	< 1 µM
COc1c(C(=O)NS(=O)(=O)c2ccccc2)ccc2c(C3CCCC3)c(-c3ccoc3)n(C)c12 [compound 202]	< 1 µM
Cn1c(-c2ccoc2)c(C2CCCCC2)c2cc(C(=O)NS(C)(=O)=O)ccc21 [compound 203]	1 to 20 µM

// next entry
Enquiry: Reported IC50, molecule Cn1c(-c2ccoc2)c(C2CCCCC2)c2cc(C(=O)NS(=O)(=O)c3ccccc3)ccc21 [compound 204] : ____
Return: 1 to 20 µM
